target: NTSR2 antibody; experiment: NTSR2 antibody–NTS(8–13) peptide binding affinity by microscale thermophoresis (MST); conditions: Monolith NT.115 Pico, RED-NHS-labeled NTSR2 antibody 20 nM, PBS with 0.005% Tween-20, 20 min dark incubation, 16 serial dilutions from 0.5 mg/mL, free peptide in solution, n = 3, read-out: dissociation constant (Kd)
quantityKind: pKd
The meaning of pKd here: minus log10 of the concentration in molar units.

Value (pKd, NTSR2 antibody) for record RRPYIL [NTS(8–13), fragment of the neurotensin peptide (RRPYIL)] = 4.48

The reported numbers originate from paper PMC12191028.
